System: ABUTH (velvetleaf)
Assay: Pre-plant incorporated (PPI) herbicidal activity, warm season
Type: in vivo, Abutilon theophrasti
Settings: Abutilon theophrasti; PPI application, 900 g/ha; read-out: Percent inhibition ABUTH
Reported inhibition at 900 g/ha values for the following molecules.
experimental.readout: inhibition at 900 g/ha (%)

| chemical.smiles | reported |
| --- | --- |
| C=C(C)CC(F)(F)S(=O)(=O)c1ncn(C(=O)N(CC)CC)n1 | 90 |
| C=CCC(F)(F)S(=O)(=O)c1ncn(C(=O)N(CC)CC)n1 | 100 |
| CCSC(F)(F)S(=O)(=O)c1ncn(C(=O)N(CC)CC)n1 | 100 |
| C=C(Br)CC(F)(F)S(=O)(=O)c1ncn(C(=O)N(CC)CC)n1 | 60 |
| CCN(CC)C(=O)n1cnc(S(=O)(=O)C(F)F)n1 | 40 |
| CCN(CC)C(=O)n1cnc(S(=O)(=O)C(F)(F)Br)n1 | 80 |
